# RUN_DESCRIPTION: Inhibition of Gamma-aminobutyric acid type-A (GABAA) receptor by radioligand binding assay
PROPERTY_NAME: IC50

1) CC(=O)N1c2cccc(O)c2NC2=C(C(=O)CC(C)(C)C2)C1c1ccc(OCc2ccccc2)cc1Cl (single isomer, unassigned; 7a)
> 30 µM

---

# Tested on: MT4
# RUN_DESCRIPTION: Cytotoxicity against human MT4 cells after 3 days by ATPLite assay
# Assay type: cell-based
# MEASUREMENT_SETUP: mt4, 72 h, 72 h
PROPERTY_NAME: CC50

1. CC(=O)N1c2cccc(O)c2NC2=C(C(=O)CC(C)(C)C2)C1c1ccc(OCc2ccccc2)cc1Cl (single isomer, unassigned; 7b)
38.4 µM
